These measurements were taken from the supplement of paper PMC10567573.

B1: TOR1AIP2 (parent)
chain: YTSSQKVSPIQIDGAGRTWQDSDT

Variants of: B1
Assay: protein stability index of a GFP-peptide fusion (GPS, HEK-293T) (PSI 1-6); higher = more stable;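 note: lentivirally expressed fusions sorted by FACS into six bins by GFP to DsRed ratio, PSI derived from sequencing read proportions per bin multiplied by bin number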
Conditions: c terminus: a fixed tail appended
Quantity Kind: protein stability index
Please reply with the value in numeric form only.

Examples with their reported protein stability index follow.
[[record]]
variant_name = "W19F"
quantity_kind = "protein stability index"
obs_value = 3.92

[[record]]
variant_name = "G14P"
quantity_kind = "protein stability index"
obs_value = 3.28

[[record]]
variant_name = "A15G"
quantity_kind = "protein stability index"
obs_value = 3.04

[[record]]
variant_name = "S22C"
quantity_kind = "protein stability index"
obs_value = 3.18

[[record]]
variant_name = "S3T"
quantity_kind = "protein stability index"
obs_value = 3.08

[[record]]
variant_name = "S22Y"
quantity_kind = "protein stability index"
obs_value = 2.51


Ask: Request the reported protein stability index associated with W19E
Reply: 4.86

Ask: Reported protein stability index for R17G : what is it?
Reply: 3.63

Ask: Reported protein stability index, variant G16N : ____
Reply: 1.93

Ask: Name the recorded protein stability index for T2D .
Reply: 5.15

Ask: Dear colleague, I am looking for the recorded protein stability index of the following variant: T18Y
Reply: 2.74
